Overview of recorded fold lower affinity than wild-type TDIF for various binders
# target entity: T1, extracellular domain of A. thaliana TDR (residues 30-642) (Arabidopsis thaliana, UniProt Q9FII5 30-642, N-glycosylated at N111, N356, N378, N471 and N525 (one GlcNAc visible on each in the structures))
# T1 construct: TDR/PXY (TDIF RECEPTOR / PHLOEM INTERCALATED WITH XYLEM) of A. thaliana, extracellular domain, residues 30-642; the structure models hold residues 40-625; also called ecdTDR; TDR-ECD; source: High Five insect cells (baculovirus), secreted, purified (Ni-NTA, size-exclusion chromatography)
# T1 sequence (looked up): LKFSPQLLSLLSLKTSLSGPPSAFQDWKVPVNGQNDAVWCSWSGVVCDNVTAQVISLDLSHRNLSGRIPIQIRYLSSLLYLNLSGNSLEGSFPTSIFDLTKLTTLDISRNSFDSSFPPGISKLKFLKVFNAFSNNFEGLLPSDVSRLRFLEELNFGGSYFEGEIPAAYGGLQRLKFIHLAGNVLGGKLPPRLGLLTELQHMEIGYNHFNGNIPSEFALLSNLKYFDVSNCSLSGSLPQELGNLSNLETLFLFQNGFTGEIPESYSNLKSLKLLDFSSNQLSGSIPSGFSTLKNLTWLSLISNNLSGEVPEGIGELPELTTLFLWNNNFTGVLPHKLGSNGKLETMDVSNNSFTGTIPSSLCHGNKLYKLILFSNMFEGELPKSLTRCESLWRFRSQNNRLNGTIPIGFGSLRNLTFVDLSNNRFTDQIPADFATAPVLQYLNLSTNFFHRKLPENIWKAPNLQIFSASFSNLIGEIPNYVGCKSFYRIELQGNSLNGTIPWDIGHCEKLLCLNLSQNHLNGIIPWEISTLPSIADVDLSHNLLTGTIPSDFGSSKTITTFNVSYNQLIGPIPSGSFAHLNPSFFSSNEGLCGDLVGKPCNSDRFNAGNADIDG
# protocol text: ITC; 0.5–1 mM peptide titrated into 10–40 μM ecdTDR; 25°C; 10 mM sodium citrate, 100 mM NaCl, pH 5.5; fitted to one set of binding sites; MicroCal Auto-iTC200
# condition label: both partners purified
Square brackets hold non-standard residues; d marks the D form. Ends that are not written are not given here. Hyp = O=C(O)[C@@H]1C[C@@H](O)CN1
Dear colleague, please return just the value in fold, with no unit written.

Below, 3 binders whose answers are already recorded.
{"binder": "HEV[Hyp]ST[Hyp]NPISN (TDIF (CLE41/CLE44 peptide) of A. thaliana; numbers count on: the 12-residue peptide) [G6T TDIF mutant peptide]", "unit string": "fold", "fold lower affinity than wild-type TDIF": 20.1}
{"binder": "HEA[Hyp]SG[Hyp]NPISN (TDIF (CLE41/CLE44 peptide) of A. thaliana; numbers count on: the 12-residue peptide) [TDIF V3A mutant peptide]", "unit string": "fold", "fold lower affinity than wild-type TDIF": 11.1}
{"binder": "HEV[Hyp]SA[Hyp]NPISN (TDIF (CLE41/CLE44 peptide) of A. thaliana; numbers count on: the 12-residue peptide) [G6A TDIF mutant peptide]", "unit string": "fold", "fold lower affinity than wild-type TDIF": 13.9}

Query fold lower affinity than wild-type TDIF for REV[Hyp]SG[Hyp]NPISN (TDIF (CLE41/CLE44 peptide) of A. thaliana; numbers count on: the 12-residue peptide; also called printed once as 'R1H substitution of TDIF'; source: synthetic peptide) [TDIF-H1R peptide] 3.2
